# Method summary: Pharmacokinetic study in rats (plasma, NCA)
# Condition summary: rat, intravenous, 400 nmol/kg
Test readout: C0
Number first, unit second: that is the form wanted.

QUERY: Fill in: C0 of CCCCCC(=O)N[C@H]1CSCc2cc(CSCCNC(=O)CN3CCN(CC(=O)O)CCN(CC(=O)O)CCN(CC(=O)O)CC3)cc(c2)CSC[C@@H](C(=O)O)NC(=O)[C@H](Cc2ccccc2)NC(=O)[C@H](CCC(N)=O)NC(=O)[C@H]([C@@H](C)O)NC(=O)[C@@H]2CCCN2C(=O)[C@@H]2CCCN2C1=O [3BP-3623] is ___
RESULT: 1410 nM

----------
Notes on IC50 obtained with FAP-expressing human WI-38 fibroblasts (Homo sapiens).
Sequence (Q12884 whole entry): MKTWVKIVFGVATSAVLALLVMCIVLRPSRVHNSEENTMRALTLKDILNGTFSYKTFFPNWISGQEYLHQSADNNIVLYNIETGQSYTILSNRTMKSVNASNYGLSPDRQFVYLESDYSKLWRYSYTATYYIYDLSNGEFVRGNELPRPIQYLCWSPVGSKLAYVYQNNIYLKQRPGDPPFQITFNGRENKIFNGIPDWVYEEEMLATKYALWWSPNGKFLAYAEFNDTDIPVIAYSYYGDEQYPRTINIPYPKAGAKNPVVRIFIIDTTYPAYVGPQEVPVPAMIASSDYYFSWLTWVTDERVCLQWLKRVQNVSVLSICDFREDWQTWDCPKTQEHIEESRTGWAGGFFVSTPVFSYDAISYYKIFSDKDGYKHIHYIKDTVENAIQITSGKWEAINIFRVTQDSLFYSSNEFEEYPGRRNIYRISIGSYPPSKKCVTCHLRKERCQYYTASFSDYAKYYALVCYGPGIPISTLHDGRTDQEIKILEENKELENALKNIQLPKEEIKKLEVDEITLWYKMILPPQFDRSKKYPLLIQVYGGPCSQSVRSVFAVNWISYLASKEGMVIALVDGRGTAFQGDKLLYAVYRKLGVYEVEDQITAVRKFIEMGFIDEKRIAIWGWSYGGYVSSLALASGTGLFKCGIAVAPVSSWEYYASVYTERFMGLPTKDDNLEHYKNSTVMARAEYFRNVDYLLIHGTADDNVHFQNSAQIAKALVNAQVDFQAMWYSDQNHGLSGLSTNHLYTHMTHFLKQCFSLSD
Numbered stars: 1 amine (or outer) side, 2 acyl side, 3 side chain; on linkers, the order of the positions; unused ones are H or OH. Bridge positions count the residues as written; N and C are the ends. Square brackets hold non-standard residues; d marks the D form. Peptide text beside a SMILES is read from it. * marks the point of attachment. X13 = O=C(O)CN1CCN(CC(=O)O)CCN(CC(=O)N2CCN(Cc3cc(C[*:1])cc(C[*:2])c3)CC2)CCN(CC(=O)O)CC1; X32 = O=C(O)CN1CCN(CC(=O)O)CCN(CC(=O)NCc2cc(C[*:1])cc(C[*:2])c2)CCN(CC(=O)O)CC1; X6 = NCCNCC(CNCCN)C(=O)NCCOCCOCCOCCOCCOCCOCCC(=O)NCCCOCCOCCOCCCN*; Bip = N[C@@H](Cc1ccc(-c2ccccc2)cc1)C(=O)O; Phe(2-Cl) = N[C@@H](Cc1ccccc1Cl)C(=O)O; mXylylene = c1cc(C[*:1])cc(C[*:2])c1; Suc = O=C(CCC(=O)[*:2])[*:1]; Nle = CCCC[C@H](N)C(=O)O; Nphe = O=C(O)CNCc1ccccc1; Hexanoyl = CCCCCC(=O)*; Mpa = O=C(O)CCS

QUERY: IC50 for CCCC[C@H](NC(=O)CCC(=O)NCCCOCCOCCOCCCNC(=O)CCOCCOCCOCCOCCOCCOCCNC(=O)C(CNCCN)CNCCN)C(=O)N[C@H]1CSCc2cccc(c2)CSC[C@@H](C(=O)O)NC(=O)[C@H](Cc2ccccc2)NC(=O)[C@H](CCC(=O)O)NC(=O)[C@H]([C@@H](C)O)NC(=O)[C@@H]2CCCN2C(=O)[C@@H]2CCCN2C1=O [3BP-4780] ({X6-Suc}-[Nle]CPPTEFC-OH; linker 2-8 via mXylylene) ?
RESULT: 10 to 79.4 nM

QUERY: Would you kindly share the measured IC50 for CCCCNC(=O)N[C@H]1CSCc2cc(cc(CN3CCN(C(=O)CN4CCN(CC(=O)O)CCN(CC(=O)O)CCN(CC(=O)O)CC4)CC3)c2)CSC[C@@H](C(N)=O)NC(=O)[C@H](Cc2ccccc2)NC(=O)[C@H](CCC(N)=O)NC(=O)[C@H]([C@@H](C)O)NC(=O)[C@@H]2CCCN2C(=O)[C@@H]2CCCN2C1=O ?
RESULT: < 10 nM

QUERY: Recorded IC50 for CCCC[C@H](NC(=O)CCC(=O)NCCCOCCOCCOCCCNC(=O)[C@H](CCC(=O)NC[C@H](O)[C@@H](O)[C@H](O)[C@H](O)CO)NC(=O)C(CNCCN)CNCCN)C(=O)N[C@H]1CSCc2cccc(c2)CSC[C@@H](C(=O)O)NC(=O)[C@H](Cc2ccccc2)NC(=O)[C@H](CCC(N)=O)NC(=O)[C@H]([C@@H](C)O)NC(=O)[C@@H]2CCCN2C(=O)[C@@H]2CCCN2C1=O , please?
RESULT: 10 to 79.4 nM

QUERY: Tell me the measured IC50 of C[C@@H](O)[C@@H]1NC(=O)[C@@H]2CCCN2C(=O)[C@@H]2CCCN2C(=O)CCSCc2cccc(c2)CSC[C@@H](C(=O)N[C@@H](CC(=O)O)C(N)=O)NC(=O)[C@H](Cc2ccccc2)NC(=O)[C@H](CCC(N)=O)NC1=O [3BP-3419] ([Mpa]PPTQFCD-NH2; linker 1-7 via mXylylene) , please.
RESULT: 100 to 794 nM

QUERY: // query IC50 value for entry C#CCCCC(=O)N[C@H]1CSCc2cc(CSCCNC(=O)CN3CCN(CC(=O)O)CCN(CC(=O)O)CCN(CC(=O)O)CC3)cc(c2)CSC[C@@H](C(=O)O)NC(=O)[C@H](Cc2ccccc2)NC(=O)[C@H](CCC(N)=O)NC(=O)[C@H]([C@@H](C)O)NC(=O)[C@@H]2CCCN2C(=O)[C@@H]2CCCN2C1=O
RESULT: 10 to 79.4 nM

QUERY: Record request: IC50 value, item CCCCCC(=O)N[C@H]1CSCc2cc(CNC(=O)CN3CCN(CC(=O)O)CCN(CC(=O)O)CCN(CC(=O)O)CC3)cc(c2)CSC[C@@H](C(=O)N[C@@H](CC(=O)O)C(N)=O)NC(=O)[C@H](Cc2ccccc2)NC(=O)[C@H](CCC(N)=O)NC(=O)[C@H]([C@@H](C)O)NC(=O)[C@@H]2CCCN2C(=O)[C@@H]2CCCN2C1=O [3BP-3556] (Hexanoyl-CPPTQFCD-NH2; linker 1-7 via X32)
RESULT: 10 to 79.4 nM

QUERY: Which IC50 is reported for this compound? CCCCCC(=O)N[C@H]1CSCc2cccc(c2)CSC[C@@H](C(N)=O)NC(=O)[C@H](Cc2ccccc2)NC(=O)[C@H](CCC(N)=O)NC(=O)[C@H]([C@@H](C)O)NC(=O)[C@@H]2CCCN2C(=O)CN(Cc2ccccc2)C1=O [3BP-3748] (Hexanoyl-C[Nphe]PTQFC-NH2; linker 1-7 via mXylylene)
RESULT: > 1000 nM

QUERY: So what does the record say about IC50 for CCCCCC(=O)N[C@H]1CSCc2cccc(c2)CSC[C@@H](C(N)=O)NC(=O)[C@H](Cc2ccccc2Cl)NC(=O)[C@H](CCC(=O)O)NC(=O)[C@H]([C@@H](C)O)NC(=O)[C@@H]2CCCN2C(=O)[C@@H]2CCCN2C1=O [3BP-3368] (Hexanoyl-CPPTE[Phe(2-Cl)]C-NH2; linker 1-7 via mXylylene) ?
RESULT: 100 to 794 nM

QUERY: Entry under review: CCCCNC(=O)N[C@H]1CSCc2cc(cc(CN3CCN(C(=O)CN4CCN(CC(=O)O)CCN(CC(=O)O)CCN(CC(=O)O)CC4)CC3)c2)CSC[C@@H](C(=O)O)NC(=O)[C@H](Cc2ccccc2)NC(=O)[C@H](CCC(N)=O)NC(=O)[C@H]([C@@H](C)O)NC(=O)[C@@H]2CCCN2C(=O)[C@@H]2CCCN2C1=O . Reported IC50?
RESULT: < 10 nM

QUERY: Need IC50 of CCCCCC(=O)N[C@H]1CSCc2cccc(c2)CSC[C@@H](C(N)=O)NC(=O)[C@H](Cc2ccc(-c3ccccc3)cc2)NC(=O)[C@H](CCC(=O)O)NC(=O)[C@H]([C@@H](C)O)NC(=O)[C@@H]2CCCN2C(=O)[C@@H]2CCCN2C1=O [3BP-3363] (Hexanoyl-CPPTE[Bip]C-NH2; linker 1-7 via mXylylene) , thanks.
RESULT: > 1000 nM

QUERY: Given CCCCNC(=O)N[C@H]1CSCc2cc(CSCCNC(=O)CN3CCN(CC(=O)O)CCN(CC(=O)O)CC3)cc(c2)CSCC(C(=O)O)NC(=O)[C@H](Cc2ccccc2)NC(=O)[C@H](CCC(N)=O)NC(=O)[C@H]([C@@H](C)O)NC(=O)[C@@H]2CCCN2C(=O)[C@@H]2CCCN2C1=O (stereo partly drawn) , state its recorded IC50.
RESULT: < 10 nM

QUERY: Could you tell me which IC50 is on file for CCCCCC(=O)N[C@H]1CSCc2cc(cc(CN3CCN(C(=O)CN4CCN(CC(=O)O)CCN(CC(=O)O)CCN(CC(=O)O)CC4)CC3)c2)CSC[C@@H](C(=O)N[C@@H](CC(=O)O)C(N)=O)NC(=O)[C@H](Cc2ccccc2)NC(=O)[C@H](CCC(N)=O)NC(=O)[C@H](C)NC(=O)[C@@H]2CCCN2C(=O)[C@@H]2CCCN2C1=O [3BP-3745] (Hexanoyl-CPPAQFCD-NH2; linker 1-7 via X13) ?
RESULT: 100 to 794 nM

----------
# Method summary: Plasma stability assay, mouse plasma
# Type: in vitro ADME
# Condition summary: mouse, plasma; 24 h incubation, 37° C.; read-out: % intact compound remaining after incubation, Mouse plasma
Numbered stars: 1 amine (or outer) side, 2 acyl side, 3 side chain; on linkers, the order of the positions; unused ones are H or OH. Bridge positions count the residues as written; N and C are the ends. Peptide text beside a SMILES is read from it. * marks the point of attachment. X13 = O=C(O)CN1CCN(CC(=O)O)CCN(CC(=O)N2CCN(Cc3cc(C[*:1])cc(C[*:2])c3)CC2)CCN(CC(=O)O)CC1; Hexanoyl = CCCCCC(=O)*
Assign remaining at 24 h, 9.8 µM to each entry below.
Dear colleague, please return just the value in %, with no unit written.

QUERY: Entry CCCCCC(=O)N[C@H]1CSCc2cc(cc(CN3CCN(C(=O)CN4CCN(CC(=O)O)CCN(CC(=O)O)CCN(CC(=O)O)CC4)CC3)c2)CSC[C@@H](C(=O)N[C@@H](CC(=O)O)C(N)=O)NC(=O)[C@H](Cc2ccccc2)NC(=O)[C@H](CCC(N)=O)NC(=O)[C@H]([C@@H](C)O)NC(=O)[C@@H]2CCCN2C(=O)[C@@H]2CCCN2C1=O [3BP-3590] (Hexanoyl-CPPTQFCD-NH2; linker 1-7 via X13) : reported remaining at 24 h, 9.8 µM = ?
RESULT: 100

QUERY: GET /values?readout=remaining at 24 h, 9.8 µM&item= CCCCCC(=O)N[C@H]1CSCc2cc(cc(CN3CCN(C(=O)CN4CCN(CC(=O)O)CCN(CC(=O)O)CCN(CC(=O)O)CC4)CC3)c2)CSC[C@@H](C(=O)O)NC(=O)[C@H](Cc2ccccc2)NC(=O)[C@H](CCC(N)=O)NC(=O)[C@H]([C@@H](C)O)NC(=O)[C@@H]2CCCN2C(=O)[C@@H]2CCCN2C1=O
RESULT: 88
